TEST METHOD NOTES: chemical genetic growth profiling, strain panel (AID 1159580);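 also: tested at 20 µM; growth read once vehicle control cultures reached saturation at 30 °C; lower values mean less growth of the strain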
DETAILS: S. cerevisiae deletion strains, growth OD, locus YFR019W, strain FAB1
Among all 5,500 compounds or so, about 2,000 (36%) were called active. About 18% were inconclusive and are not listed. Rule as the data show it: active = normalized growth mostly below about 0.91 (no sharp cut-off); inconclusive = no clear call, values can overlap the other calls; inactive = mostly above about 0.92. Some of the results follow.
Returns: one label drawn from TRUE (active), FALSE (inactive)

Consider the worked cases shown below.
CN1c2ccccc2C(C)(C)C12C=Cc1cc(O)ccc1O2 (stereo not given) = FALSE
O=C(Nc1cc2c(s1)-c1cc(Cl)ccc1SC2)Oc1ccccc1 = FALSE
Cn1nc(-c2ccccc2)c(O)c(N=Nc2ccccc2)c1=O = FALSE
Cc1ccc2nc(-c3ccc([N+](=O)[O-])o3)oc(=O)c2c1 = TRUE

Could you now look at the following compound, please?
What outcome does the record of this test show for OC(CSc1ccccc1)CN1CCN(c2nc(-c3ccccc3)ns2)CC1 (stereo not given) ?
FALSE
